Values were extracted from patent US9302999B2.

So I've got a bunch of compounds here, and I need their Plant response rating, Velvetleaf values.
# Test system: velvetleaf (Abutilon theophrasti)
# protocol: Test A pre-/postemergence: velvetleaf
# Assay type: in vivo
# assay_setup: Preemergence, 125 g ai/ha; 0 to 100 scale (0 no effect, 100 complete control)
Numbers only.

In the examples that follow, each entry is paired with its recorded Plant response rating, Velvetleaf.
Cc1nn(-c2ccc(Br)cc2)nc1Oc1ccnc(C(F)(F)F)c1: 10
Cc1nn(-c2ccc(C(F)(F)F)cc2)nc1Sc1cccc(C(F)(F)F)c1: 0
Cc1nn(-c2ccc(C(F)(F)F)cc2)nc1Oc1ccnc(OC(F)F)c1: 0

Would you mind listing Plant response rating, Velvetleaf for each of the following compounds?
1. Cc1nn(-c2ccc(C(F)(F)F)cn2)nc1Cn1cnc(C(F)(F)F)n1
2. Cc1nn(-c2ccccn2)nc1C(=O)c1cccc(C(F)(F)F)c1

[out]
20
0

Hey, can you go through the list below and give me Plant response rating, Velvetleaf for every item?
1. FC(F)Oc1nn(-c2ccc(C(F)(F)F)cc2)nc1Cc1ccnc(C(F)(F)F)c1
2. CSc1nn(-c2ccc(F)cc2)nc1Cc1ccnc(C(F)(F)F)c1
3. COc1nn(-c2ccc(C(F)(F)F)cc2)nc1Cn1cnc(C(F)(F)F)n1
4. COc1nn(-c2ccc(C(F)(F)F)cc2)nc1C(F)c1ccnc(C(F)(F)F)c1 (centres unmarked)
5. CCc1nn(-c2ccc(F)cc2)nc1Cn1ccc(C(F)(F)C(F)(F)F)n1

[out]
80
0
20
30
0

[in] Using known records, supply Plant response rating, Velvetleaf for Cc1nn(-c2ccc(C(F)(F)F)cc2)nc1Cn1cc(C(F)(F)F)cn1
[out] 0

====

# System: cocklebur (common cocklebur, Xanthium strumarium)
# protocol: Test C pre-/postemergence: cocklebur
# Assay type: in vivo
# assay_setup: Preemergence, 250 g ai/ha; scale 0 to 100, 0 no effect, 100 complete control
For each record, write down the corresponding Plant response rating, Cocklebur.
One number for each entry.

Guide cases for Plant response rating, Cocklebur, answers given:
Cc1nn(-c2ccc(C(F)(F)F)cc2)nc1Oc1ccnc(C(F)(F)F)c1: 5
FC(F)(F)COc1nn(-c2ccc(C(F)(F)F)cc2)nc1Cc1ccnc(C(F)(F)F)c1: 45
Fc1ccc(-n2nc(Cc3ccnc(C(F)(F)F)c3)c(OC(F)F)n2)cc1: 30

[in] Tell me measured Plant response rating, Cocklebur for CCOc1nn(-c2ccc(F)cc2)nc1Cc1ccnc(C(F)(F)F)c1 please.
[out] 75

====

Exercise: state measured Plant response rating, Barnyardgrass for each of the compounds provided.
# System: barnyardgrass (Echinochloa crus-galli)
# protocol: Test C flooded paddy test: barnyardgrass
# Type: in vivo
# assay_setup: Flood (flooded paddy test), 125 g ai/ha; visual rating after 13 to 15 days, scale 0 to 100 (0 no effect, 100 complete control)
Give bare numbers.

Cc1nn(-c2cccc(C(F)(F)F)c2)nc1Oc1cc(C(F)(F)F)nn1C: 0

// for each compound below, give its Plant response rating, Barnyardgrass
1. Cc1nn(-c2ccc(C(F)(F)F)cc2)nc1Cn1cc(C(F)(F)F)cn1
2. Cc1nn(-c2ccccn2)nc1C(=O)c1cccc(C(F)(F)F)c1
3. Cc1nn(-c2ccc(C(F)(F)F)cc2)nc1Oc1cccc(OC(F)(F)F)c1
4. Cc1nn(-c2ccc(Cl)nc2)nc1C(=O)c1cccc(C(F)(F)F)c1
5. FC(F)(F)c1ccc(-n2nc(Br)c(Cc3cccc(C(F)(F)F)c3)n2)cc1
6. Cc1nn(-c2ccc(C(F)(F)F)cc2)nc1Oc1ccnc(C(F)(F)F)c1
7. Cc1nn(-c2ccc(F)cc2)nc1Oc1cccc(C(F)(F)F)c1

[out]
1. 0
2. 0
3. 25
4. 0
5. 0
6. 80
7. 30

[in] Specify reported Plant response rating, Barnyardgrass for the compound shown: Cc1nn(-c2ccc(C(F)(F)F)cc2)nc1Oc1cccc(C(F)(F)F)c1
[out] 20

====

# Tested on: chamomile (scentless chamomile, Matricaria inodora)
# protocol: Test D pre-/postemergence: chamomile
# Format: in vivo
# assay_setup: Preemergence; 62 g ai/ha; scale 0 to 100
Consider the following molecules; for each one, report its Plant response rating, Chamomile.
One number for each entry.

// below: answered molecules
Cc1nn(-c2ccc(C(F)(F)F)cc2)nc1Oc1ccnc(C(F)(F)F)c1: 20
Cc1nn(-c2ccc(C(F)(F)F)c(F)c2)nc1Oc1ccnc(C(F)(F)F)c1: 70
CCc1nn(-c2ccc(C(F)(F)F)cc2)nc1Cc1ccnc(C(F)(F)F)c1: 95

[in] GET Plant response rating, Chamomile where system = chamomile (scentless chamomile, Matricaria inodora) and item = CCOc1nn(-c2ccc(F)cc2)nc1Cc1ccnc(C(F)(F)F)c1
[out] 100

====

# System: soybean (Glycine max)
# protocol: Test C pre-/postemergence: soybean
# Assay type: in vivo
# assay_setup: Postemergence, 62 g ai/ha; scale 0 to 100 (0 no effect, 100 complete control)
endpoint_label: Plant response rating, Soybean
One number for each entry.

Cc1nn(-c2ccc(C(F)(F)F)c(F)c2)nc1Oc1ccnc(C(F)(F)F)c1 [Compound 148]: 45
CCCc1nn(-c2ccc(C(F)(F)F)cc2)nc1Oc1ccnc(C(F)(F)F)c1 [Compound 170]: 70
CCOc1nn(-c2ccc(Cl)cc2)nc1Cc1ccnc(C(F)(F)F)c1 [Compound 188]: 50

# next compound below
[in] Determine from records and report Plant response rating, Soybean for Fc1ccc(-n2nc(Cc3ccnc(C(F)(F)F)c3)c(OC(F)F)n2)cc1 [Compound 25]
[out] 30

====

# Test system: morningglory (Ipomoea spp.)
# protocol: Test A pre-/postemergence: morningglory
# Type: in vivo
# assay_setup: Preemergence, 500 g ai/ha; 0 to 100 scale, 0 is no effect, 100 is complete control
Response field label: string, one of Yes (Plant response rating, Morningglory strictly below 10) or No.

The examples below pair each entry with its known result.
Cc1nn(-c2ccc(C(F)(F)F)cc2)nc1Oc1cccc(Cl)c1: Yes
Cc1nn(-c2ccccn2)nc1C(=O)c1cccc(C(F)(F)F)c1: Yes
Cc1nn(-c2ccc(C(F)(F)F)cc2)nc1Oc1ccnc(OC(F)F)c1: No

[in] I wonder whether Cc1nn(-c2ccc(C(F)(F)F)cn2)nc1Cn1cnc(C(F)(F)F)n1 has Plant response rating, Morningglory below 10. Can you tell?
[out] No

[in] In the record for Cc1nn(-c2ccc(F)cc2)nc1Cn1cc(C(F)(F)F)nc1Cl , is Plant response rating, Morningglory less than 10?
[out] No

[in] Dear colleague, could you confirm whether Plant response rating, Morningglory of Cc1nn(-c2ccc(F)cc2)nc1Cn1c(Cl)nc(C(F)(F)F)c1Cl falls below 10? Thanks.
[out] Yes

====

For each of the compounds below, state its Plant response rating, Pigweed.
# Tested on: pigweed (Amaranthus retroflexus)
# protocol: Test C pre-/postemergence: pigweed
# Type: in vivo
# assay_setup: Postemergence, 31 g ai/ha; scale 0 to 100 (0 no effect, 100 complete control)

// batch mode: one Plant response rating, Pigweed value per listed entry
1. FCc1nn(-c2ccc(F)cc2)nc1Oc1ccnc(C(F)(F)F)c1
2. CCCc1nn(-c2ccc(F)cc2)nc1Oc1ccnc(C(F)(F)F)c1
3. CCOc1nn(-c2ccc(C(F)(F)F)cc2)nc1Cc1ccnc(C(F)(F)F)c1

[out]
1: 95; 2: 80; 3: 50

Take each entry in turn and give its Plant response rating, Pigweed.
1. CCOc1nn(-c2ccc(F)cc2)nc1Cc1ccnc(C(F)(F)F)c1
2. CCc1nn(-c2ccc(F)c(F)c2)nc1Oc1ccnc(C(F)(F)F)c1
3. CCCc1nn(-c2ccc(F)c(F)c2)nc1Oc1ccnc(C(F)(F)F)c1
4. CCc1nn(-c2ccc(C(F)(F)F)c(F)c2)nc1Oc1ccnc(C(F)(F)F)c1
5. Cc1nn(-c2ccc(C(F)(F)F)c(F)c2)nc1Oc1ccnc(C(F)(F)F)c1

[out]
1. 98
2. 70
3. 98
4. 100
5. 65

====

# System: crabgrass, large (large crabgrass, Digitaria sanguinalis)
# protocol: Test A pre-/postemergence: crabgrass, large
# Format: in vivo
# assay_setup: Postemergence, 125 g ai/ha; 0 to 100 scale, 0 is no effect, 100 is complete control
The label depends only on Plant response rating, Crabgrass, Large: T if it is at least 70, F if it is smaller.

Sample answers from the record:
Cc1nn(-c2ccc(F)cc2)nc1Cc1cccc(C(F)(F)F)c1: F
CCCOc1nn(-c2ccc(C(F)(F)F)cc2)nc1Cc1ccnc(C(F)(F)F)c1: T

[in] Please tell me: is the compound CC(C)(C)c1nn(-c2ccc(F)cc2)nc1Cc1ccnc(C(F)(F)F)c1 at or over 70 in terms of Plant response rating, Crabgrass, Large?
[out] F

[in] Entry CCc1nn(-c2ccc(F)c(C(F)(F)F)c2)nc1Oc1ccnc(C(F)(F)F)c1 : is its Plant response rating, Crabgrass, Large no less than 70?
[out] T

[in] API: above_or_equal(metric=Plant response rating, Crabgrass, Large, cutoff=70) for item Cc1nn(-c2ccc(F)c(C(F)(F)F)c2)nc1Cc1ccnc(C(F)(F)F)c1
[out] T

[in] Item CCCCc1nn(-c2ccc(C(F)(F)F)cc2)nc1Oc1ccnc(C(F)(F)F)c1 with Plant response rating, Crabgrass, Large of 70 or above?
[out] F
